Known pIC50 of a selection of molecules
- System: Patient #4 infant leukemia primary cells
- method.notes: Cytotoxicity assay, primary sample Patient #4
- Type: cell-based, human
- measurement.parameters: Homo sapiens, 96 h, four days in culture, Alamar blue assay or automated microscopy, one complete study
pIC50: −log10 of the molar value.
parameter.measured: pIC50

entry.smiles: Cc1nc(N)sc1-c1ccnc(Nc2ccc(N3CCOCC3)cc2)n1
parameter.measured: pIC50
censoring.operator: <
result.value: 5.00
--
entry.smiles: O=C(Nc1cccc(Cl)c1)Nc1ncc(CCNc2ncnc3ccsc23)s1
parameter.measured: pIC50
censoring.operator: =
result.value: 5.10
--
entry.smiles: CCS(=O)(=O)Nc1ccc2c(c1)/C(=C(/Nc1ccc(CN3CCCCC3)cc1)c1ccccc1)C(=O)N2
parameter.measured: pIC50
censoring.operator: =
result.value: 5.70
--
entry.smiles: Nc1nc(Nc2ccc(S(N)(=O)=O)cc2)nn1C(=O)c1c(F)cccc1F
parameter.measured: pIC50
censoring.operator: =
result.value: 5.10
--
entry.smiles: Cc1cc(Nc2cc(N3CCN(C)CC3)nc(/C=C/c3ccccc3)n2)n[nH]1
parameter.measured: pIC50
censoring.operator: =
result.value: 5.00
--
entry.smiles: Cc1cc(Nc2cc(N3CCN(C)CC3)nc(Sc3ccc(NC(=O)C4CC4)cc3)n2)[nH]n1
parameter.measured: pIC50
censoring.operator: =
result.value: 6.00
--
entry.smiles: CCc1cccc(CC)c1NC(=O)N1Cc2n[nH]c(NC(=O)c3ccc(N4CCN(C)CC4)cc3)c2C1
parameter.measured: pIC50
censoring.operator: <
result.value: 5.00
--
entry.smiles: CO[C@@H](C(=O)N1Cc2n[nH]c(NC(=O)c3ccc(N4CCN(C)CC4)cc3)c2C1)c1ccccc1
parameter.measured: pIC50
censoring.operator: <
result.value: 5.00

###

- Tested on: Molm13 AML cell line
- method.notes: Cytotoxicity assay, Molm13
- Type: cell-based, human
- measurement.parameters: Homo sapiens, MOLM-13, 96 h, four days in culture, Alamar blue assay or automated microscopy, ± SD, three experiments
Known IC50 of a selection of compounds

compound: Cc1nc(N)sc1-c1ccnc(Nc2ccc(N3CCOCC3)cc2)n1 [CYC116]
IC50 (nM): 400

compound: Cc1cc(Nc2cc(N3CCN(C)CC3)nc(Sc3ccc(NC(=O)C4CC4)cc3)n2)[nH]n1 [VX-680]
IC50 (nM): 4

compound: CCc1cccc(CC)c1NC(=O)N1Cc2n[nH]c(NC(=O)c3ccc(N4CCN(C)CC4)cc3)c2C1 [PHA-680632]
IC50 (nM): 30

###

- Test system: C1 B-ALL cell line
- method.notes: Cytotoxicity assay, C1
- Type: cell-based, human
- measurement.parameters: Homo sapiens, 96 h, four days in culture, Alamar blue assay or automated microscopy, ± SD, three experiments

molecule: O=C(Nc1c[nH]nc1-c1nc2ccc(CN3CCOCC3)cc2[nH]1)NC1CC1 [AT9283]
readout.unit: nM
IC50: 0.6

molecule: Cc1cc(Nc2cc(N3CCN(C)CC3)nc(Sc3ccc(NC(=O)C4CC4)cc3)n2)[nH]n1 [VX-680]
readout.unit: nM
IC50: 0.4

molecule: CCS(=O)(=O)Nc1ccc2c(c1)/C(=C(/Nc1ccc(CN3CCCCC3)cc1)c1ccccc1)C(=O)N2 [Hesperadin]
readout.unit: nM
IC50: 0.06

molecule: Cc1cc(Nc2cc(N3CCN(C)CC3)nc(/C=C/c3ccccc3)n2)n[nH]1 [ENMD-2076]
readout.unit: nM
IC50: 700

###

- Tested on: UOCB1 B-ALL cell line
- method.notes: Cytotoxicity assay, UOCB1
- Assay type: cell-based, human
- measurement.parameters: Homo sapiens, UoC-B1, 96 h, four days in culture, Alamar blue assay or automated microscopy, ± SD, three experiments

entry.smiles: COc1cc(Nc2ncc3c(n2)-c2ccc(Cl)cc2C(c2c(F)cccc2OC)=NC3)ccc1C(=O)O
readout.unit: nM
censoring.operator: =
IC50: 0.003
//
entry.smiles: Nc1nc(Nc2ccc(S(N)(=O)=O)cc2)nn1C(=O)c1c(F)cccc1F
readout.unit: nM
censoring.operator: =
IC50: 200
//
entry.smiles: Cc1cc(Nc2cc(N3CCN(C)CC3)nc(/C=C/c3ccccc3)n2)n[nH]1
readout.unit: nM
censoring.operator: =
IC50: 1000
//
entry.smiles: CO[C@@H](C(=O)N1Cc2n[nH]c(NC(=O)c3ccc(N4CCN(C)CC4)cc3)c2C1)c1ccccc1
readout.unit: nM
censoring.operator: =
IC50: 60
//
entry.smiles: O=C(Nc1cccc(Cl)c1)Nc1ncc(CCNc2ncnc3ccsc23)s1
readout.unit: nM
censoring.operator: <
IC50: 0.001
//
entry.smiles: Cc1cc(Nc2cc(N3CCN(C)CC3)nc(Sc3ccc(NC(=O)C4CC4)cc3)n2)[nH]n1
readout.unit: nM
censoring.operator: <
IC50: 0.001
//
entry.smiles: CCc1cccc(CC)c1NC(=O)N1Cc2n[nH]c(NC(=O)c3ccc(N4CCN(C)CC4)cc3)c2C1
readout.unit: nM
censoring.operator: =
IC50: 1000
//
entry.smiles: CCN(CCCOc1ccc2c(Nc3cc(CC(=O)Nc4cccc(F)c4)n[nH]3)ncnc2c1)CCOP(=O)(O)O
readout.unit: nM
censoring.operator: =
IC50: 0.6

###

- Test system: Patient #5 ALL/AML primary leukemia cells
- method.notes: Cytotoxicity assay, primary sample Patient #5
- Type: cell-based, human
- measurement.parameters: Homo sapiens, 96 h; primary sample; four days in culture; Alamar blue assay or automated microscopy; one complete study; read-out: IC50, Patient #5 ALL/AML
- Experimental: These include B-ALL (Patient #1), relapsed AML (Patient #2), AML/CML (Patient #3), infant ALL (Patient #4), and initial ALL presenting with secondary AML (Patient #5). […] Cells were re-suspended in Opti-MEM and viable cells were counted using trypan blue (Invitrogen, Life Technologies Corporation, Burlington, Ontario) exclusion on a haemocytometer. […] For automated inverted microscopy, the number of cells in each well was determined using the direct cell counting application as described previously. […]
pIC50: −log10 of the molar value.
Known pIC50 of a selection of molecules

entry.smiles: CCN(CCCOc1ccc2c(Nc3cc(CC(=O)Nc4cccc(F)c4)n[nH]3)ncnc2c1)CCOP(=O)(O)O
pIC50: 10.70
--
entry.smiles: O=C(Nc1c[nH]nc1-c1nc2ccc(CN3CCOCC3)cc2[nH]1)NC1CC1
pIC50: 9.52
--
entry.smiles: COc1cc(Nc2ncc3c(n2)-c2ccc(Cl)cc2C(c2c(F)cccc2OC)=NC3)ccc1C(=O)O
pIC50: 10.00
--
entry.smiles: Cc1cc(Nc2cc(N3CCN(C)CC3)nc(Sc3ccc(NC(=O)C4CC4)cc3)n2)[nH]n1
pIC50: 9.30
--
entry.smiles: Cc1nc(N)sc1-c1ccnc(Nc2ccc(N3CCOCC3)cc2)n1
pIC50: 9.40
--
entry.smiles: CCS(=O)(=O)Nc1ccc2c(c1)/C(=C(/Nc1ccc(CN3CCCCC3)cc1)c1ccccc1)C(=O)N2
pIC50: 11.00
--
entry.smiles: CO[C@@H](C(=O)N1Cc2n[nH]c(NC(=O)c3ccc(N4CCN(C)CC4)cc3)c2C1)c1ccccc1
pIC50: 9.00
--
entry.smiles: Cc1cc(Nc2cc(N3CCN(C)CC3)nc(/C=C/c3ccccc3)n2)n[nH]1
pIC50: 7.52

###

- Test system: UOCB1 B-ALL cell line
- method.notes: Cytotoxicity assay, UOCB1
- Type: cell-based, human
- measurement.parameters: Homo sapiens, UoC-B1, 96 h, four days in culture, Alamar blue assay or automated microscopy, ± SD, three experiments
Known IC50 of a selection of compounds

entry.smiles: Cc1nc(N)sc1-c1ccnc(Nc2ccc(N3CCOCC3)cc2)n1
censoring.operator: =
IC50, nM: 200

entry.smiles: CCS(=O)(=O)Nc1ccc2c(c1)/C(=C(/Nc1ccc(CN3CCCCC3)cc1)c1ccccc1)C(=O)N2
censoring.operator: <
IC50, nM: 0.001

entry.smiles: O=C(Nc1c[nH]nc1-c1nc2ccc(CN3CCOCC3)cc2[nH]1)NC1CC1
censoring.operator: =
IC50, nM: 0.08

###

Known IC50 of a selection of molecules
- System: UOCB1 B-ALL cell line
- method.notes: Cytotoxicity assay, UOCB1
- Type: cell-based, human
- measurement.parameters: four days in culture, Alamar blue assay or automated microscopy, ± SD, three experiments
parameter.measured: IC50

entry.smiles: CCN1CCN(C(=O)Cc2ccc(Nc3ncc(F)c(Nc4ccc(C(=O)Nc5ccccc5Cl)cc4)n3)cc2)CC1
parameter.measured: IC50
result.value: 20 nM
//
entry.smiles: CN(C)c1ccc(-c2nc3ncc(Cl)c(N4CCN(CC(=O)Nc5nccs5)CC4)c3[nH]2)cc1
parameter.measured: IC50
result.value: 900 nM
//
entry.smiles: COc1cc2c(Nc3ccc(NC(=O)c4ccccc4)cc3)ncnc2cc1OCCCN1CCOCC1
parameter.measured: IC50
result.value: 80 nM

Origin of values: paper PMC4105567
